biological target: T1, human ACVR2A (human, UniProt P27037 20-135, limits assumed); assay: ELISA; further: test concentration or dose not given here
T1 construct: coated antigen of the initial ELISA; also called activin receptor, type II A
T1 sequence (P27037 20-135 limits assumed): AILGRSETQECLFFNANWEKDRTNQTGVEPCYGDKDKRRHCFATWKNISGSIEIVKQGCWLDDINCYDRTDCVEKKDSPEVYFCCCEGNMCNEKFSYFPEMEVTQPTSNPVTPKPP
Consider the following binders and their measured optical density readings.
Write the number in OD without appending the unit.

Known optical density results, listed for orientation:
*Q* Any idea what optical density was measured for 371_C01 (antibody, V domains shown, Group III) VH: EVQLLESGGGLVQPGGSLRLSCAASGFTFSSYGMHWVRQAPGKGLEWVSSINYNGGYTGYADSVKGRFTISRDNSKNTLYLQMNSLRAEDTAVYYCARGANWHDTHLDYWGQGTLVTVSS VL: DIQMTQSPSSLSASVGDRVTITCRASQSIVSYLNWYQQKPGKAPKLLIYAATSRHSGVPSRFSGSGSGTDFTLTISSLQPEDFATYYCQQSYDNPLTFGGGTKVEIK ?
*A* 2

*Q* Quick one: optical density of 371_E06 (antibody, V domains shown, Group III) VH: EVQLLESGGGLVQPGGSLRLSCAASGFTFSSYSMNWVRQAPGKGLEWVSGINYNGGYTSYADSVKGRFTISRDNSKNTLYLQMNSLRAEDTAVYYCARGANWHDTALDYWGQGTLVTVSS VL: DIQMTQSPSSLSASVGDRVTITCRASQSISTYLNWYQQKPGKAPKLLIYAVTSLHSGVPSRFSGSGSGTDFTLTISSLQPEDFATYYCQQSYESPLTFGGGTKVEIK ?
*A* 3

*Q* # input binder: 371_C05 (antibody, V domains shown, Group III) VH: EVQLLESGGGLVQPGGSLRLSCAASGFTFSDYGMHWVRQAPGKGLEWVANINYNGGYTGYADSVKGRFTISRDNSKNTLYLQMNSLRAEDTAVYYCARGANWHDTALDYWGQGTLVTVSS VL: DIQMTQSPSSLSASVGDRVTITCRASQSILSYLNWYQQKPGKAPKLLIYAATSRASGVPSRFSGSGSGTDFTLTISSLQPEDFATYYCQQSYDSPLTFGGGTKVEIK ; wanted: its optical density
*A* 1.24

*Q* Sample 374_D06 (antibody, V domains shown, Group III) VH: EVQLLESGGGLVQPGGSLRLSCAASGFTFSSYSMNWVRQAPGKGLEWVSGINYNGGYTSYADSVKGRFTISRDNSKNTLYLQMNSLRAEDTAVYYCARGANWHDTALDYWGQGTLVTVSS VL: DIQMTQSPSSLSASVGDRVTITCRASQSILSYVNWYQQKPGKAPKLVIYAATSRASGVPSRFSGSGSGTDFTLTISSLQPEDFATYYCQQSYDSPLTFGGGTKVEIK — what was its optical density?
*A* 3.78

More entries:
*Q* Please report the recorded optical density for 373_A01 (antibody, V domains shown, Group III) VH: EVQLLESGGGLVQPGGSLRLSCAASGFTFSSYGMNWVRQAPGKGLEWVSNINYNGGYTGYADSVKGRFTISRDNSKNTLYLQMNSLRAEDTAVYYCARGANWHDTHLDYWGQGTLVTVSS VL: DIQMTQSPSSLSASVGDRVTITCRASQSIVTYLNWYQQKPGKAPKLVIYATTSRASGVPSRFSGSGSGTDFTLTISSLQPEDFATYYCQQSYNLPLTFGGGTKVEIK .
*A* 3.18
